All values here come from ChEMBL document CHEMBL3885861.

species: Rattus norvegicus; assay: Open TG-GATES - Regimen: Daily Repeat; type: toxicity, organism-based, Sprague-Dawley; parameters: regimen Daily Repeat, gender Male, age 6 weeks; conditions: in vivo, po, 100 mg/kg, […], tissue Plasma, route gavage, dose level Low, time 28 day
propertyMeasured: TBIL (mg/dL)

>  <molecule>
CCN1CCCC1CNC(=O)c1cc(S(N)(=O)=O)ccc1OC (centres undefined) [SULPIRIDE]

>  <propertyMeasured>
TBIL

>  <quantitativeReadout>
0.068

$$$$
>  <molecule>
CC(C)(S)[C@@H](N)C(=O)O

>  <propertyMeasured>
TBIL

>  <quantitativeReadout>
0.066

$$$$
>  <molecule>
O=C(N[C@H](CO)[C@H](O)c1ccc([N+](=O)[O-])cc1)C(Cl)Cl

>  <propertyMeasured>
TBIL

>  <quantitativeReadout>
0.058

$$$$
>  <molecule>
O=C(O)c1cccnc1

>  <propertyMeasured>
TBIL

>  <quantitativeReadout>
0.014

$$$$

###

species: Rattus norvegicus; experiment: Open TG-GATES - Regimen: Daily Repeat; type: toxicity, organism-based, Sprague-Dawley; set-up: regimen Daily Repeat, gender Male, age 6 weeks; settings: in vivo, po, 100 mg/kg, […], tissue Plasma, route gavage, dose level Low, time 14 day

>  <compound>
O=C(O)c1cccnc1

>  <K / meq/L>
4

$$$$
>  <compound>
CCN1CCCC1CNC(=O)c1cc(S(N)(=O)=O)ccc1OC (centres undefined) [SULPIRIDE]

>  <K / meq/L>
3.9

$$$$
>  <compound>
CC(C)(S)[C@@H](N)C(=O)O

>  <K / meq/L>
3.9

$$$$
>  <compound>
O=C(N[C@H](CO)[C@H](O)c1ccc([N+](=O)[O-])cc1)C(Cl)Cl

>  <K / meq/L>
3.8

$$$$

###

species on record: Rattus norvegicus; assay: Open TG-GATES - Regimen: Daily Repeat; assay type: toxicity, organism-based, Sprague-Dawley; design: regimen Daily Repeat, gender Male, age 6 weeks; details: in vivo, po, 1000 mg/kg, […], tissue Blood, route gavage, dose level High, time 28 day

>  <compound>
CC(C)(S)[C@@H](N)C(=O)O

>  <unitText>
g/dL

>  <Hb>
12.1

$$$$
>  <compound>
O=C(O)c1cccnc1

>  <unitText>
g/dL

>  <Hb>
14.8

$$$$
>  <compound>
CCN1CCCC1CNC(=O)c1cc(S(N)(=O)=O)ccc1OC (centres undefined) [SULPIRIDE]

>  <unitText>
g/dL

>  <Hb>
15.8

$$$$
>  <compound>
O=C(N[C@H](CO)[C@H](O)c1ccc([N+](=O)[O-])cc1)C(Cl)Cl

>  <unitText>
g/dL

>  <Hb>
14.6

$$$$

###

organism: Rattus norvegicus; assay: Open TG-GATES - Regimen: Daily Repeat; type: toxicity, organism-based, Sprague-Dawley; design: regimen Daily Repeat, gender Male, age 6 weeks; details: in vivo, po, 100 mg/kg, […], tissue Blood, route gavage, dose level Low, time 7 day
Entries and their measured Hb follow.

>  <molecule>
CCN1CCCC1CNC(=O)c1cc(S(N)(=O)=O)ccc1OC (centres undefined) [SULPIRIDE]

>  <Hb / g/dL>
14

$$$$
>  <molecule>
O=C(O)c1cccnc1

>  <Hb / g/dL>
13.5

$$$$
>  <molecule>
CC(C)(S)[C@@H](N)C(=O)O

>  <Hb / g/dL>
13.9

$$$$
>  <molecule>
O=C(N[C@H](CO)[C@H](O)c1ccc([N+](=O)[O-])cc1)C(Cl)Cl

>  <Hb / g/dL>
14.2

$$$$
